system: SR leukemia; assay: NCI-60 one-dose screen, 48 h (100 = growth as untreated, 0 = no growth, -100 = all killed); conditions: 10 µM unless noted
The panel holds about 83,000 compounds, 20% with a hit somewhere; the sample as a whole holds those more often.
ASSAY_METRIC: growth (%)
Enter your answer as a number in %; do not include the unit.

COMPOUND	VALUE_UNIT	RESULT_NUMBER
CN(C)CCC(=O)c1ccc([N+](=O)[O-])cc1	%	97.8

Continue with the compound presented below.
query: Form field: reported growth of "Cc1cnc(C(=O)Nc2nc3ccc(S(=O)(=O)Nc4ccc(C(C)(C)C)cc4)cc3[nH]2)cn1"
result: 12.3
